# ASSAY_INFO: qHTS assay to identify small molecule agonists of the estrogen related receptor signaling pathway with the pleiotropic PPARgamma coactivator (PGC) from Tox21 10K library (AID 1224842); also: nearly all actives have a fitted effect of over 15% in size
# SETUP_CONDITIONS: PGC/ERR reporter cell line, luciferase ONE-Glo, 18 h; series mostly up to 92.4 µM
Inconclusive results are not listed. Activity calls are given as the source filed them. Calls follow the shape of the dose curve; as a rule, active = well fitted activation curve with a large enough effect in the repeat runs; inconclusive = weak or mixed curves, or effect the other way; inactive = no such curve, though single readings can be large or run the other way.
Pick one: Yes (active), No (inactive)

Examples from the recorded data:
c1ccc(SCCSc2ccccc2)cc1	Yes
COc1ccc(COC=O)cc1	No

Could you please tell me the result logged for CC(C)CCCC(C)NCCC(C)C (centres undefined) in this assay?
No

// param item: CCCCc1ccc2cccc(S(=O)(=O)O)c2c1 ; yields the recorded call
No

Recorded test call requested for CC(C)(O)Cc1ccccc1
No

// return assay outcome for N#CC1(O)CCCCC1
No

// param item: O=C(O)c1cccc(C(=O)O)n1 ; yields the recorded call
No

What did the test return for Nc1ncnc2c1ncn2Cc1c(F)cccc1Cl ?
No

Record lookup: outcome of this test for CN(C)C(=O)C(CCN1CCC(O)(c2ccc(Cl)cc2)CC1)(c1ccccc1)c1ccccc1 ?
No
